- experimental_system: Cyclic GMP-AMP synthase (Homo sapiens, UniProt Q8N884)
- Sequence (Q8N884 whole entry): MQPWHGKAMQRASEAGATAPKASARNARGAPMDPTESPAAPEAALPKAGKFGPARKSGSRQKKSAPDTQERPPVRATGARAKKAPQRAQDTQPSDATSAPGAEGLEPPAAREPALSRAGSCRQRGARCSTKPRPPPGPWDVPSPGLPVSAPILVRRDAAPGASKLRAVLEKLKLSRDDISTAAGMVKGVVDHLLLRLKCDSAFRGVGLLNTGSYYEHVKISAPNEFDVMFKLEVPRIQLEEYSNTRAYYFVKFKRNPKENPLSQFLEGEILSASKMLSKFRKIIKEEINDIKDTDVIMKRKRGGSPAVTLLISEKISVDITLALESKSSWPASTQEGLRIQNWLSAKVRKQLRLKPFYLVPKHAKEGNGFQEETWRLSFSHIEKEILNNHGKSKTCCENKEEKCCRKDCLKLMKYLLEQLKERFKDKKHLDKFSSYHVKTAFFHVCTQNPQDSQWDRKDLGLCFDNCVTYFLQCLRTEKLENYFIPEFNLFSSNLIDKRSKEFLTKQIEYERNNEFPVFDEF
- measurement_protocol: Inhibition of cGAS in dsDNA-stimulated human THP-1 cells assessed as cGAMP formation
experimental_readout: IC50 (nM)
Respond with the bare value in nM.

Q: Looking for the measured IC50 of O=C(CO)N1CCc2[nH]c3c(Cl)c(Cl)cc(-c4ccn[nH]4)c3c2C1 , can you help?
Result: 2950

###

- measurement_protocol: Cytotoxicity against human THP1-Lucia ISG cells assessed as effect on cell viability by celltiter-glo assay
- Format: toxicity, cell-based
pIC50: −log10 of the molar value.
experimental_readout: pIC50

Q: Looking for the measured pIC50 of O=c1oc2cc(O)c(O)cc2c2cc(O)c(O)cc12 , can you help?
Result: < 4.52
